Attribute: Mean relative activity
- Tested on: K562 CRISPRi cells
- assay-procedure: Constant region variant library pooled growth screen, K562
- Assay type: cell-based, human
- condition-parameters: sgRNA constant region variants; relative to the original, un-modified constant region cr995 (= 1)
Kindly provide the number alone.

molecule: cr018 (nucleic acid, listed as DNA, chemistry not fully specified) guide: GTTTAAAAGCTAAGCTGGAAACAGCATAGCAAGTTTAAATAAGGCTAGTCCGTTATCAACTTGAAAAAGTGGCACCGAGTCGGTGCT
Mean relative activity: 1.017
--
molecule: cr433 (nucleic acid, listed as DNA, chemistry not fully specified) guide: GTTTAAGAGCTAAGCTGGAAACAGCATAGCAAGTTTAAATAAGGCTAGTCCGTTATCAACTTGAATAAGTGGCACCGAGTCGGTGCT
Mean relative activity: 1.012
--
molecule: cr851 (nucleic acid, listed as DNA, chemistry not fully specified) guide: GTTTAAGAGCTAAGCTGGAAACAGCATAGCAAGTTTAAATAAGGCTAGTCCGTTATCAGCTTGAAAAAGCGGCACCAAGTTGGTGCT
Mean relative activity: 1.002
--
molecule: cr408 (nucleic acid, listed as DNA, chemistry not fully specified) guide: GTTTAAGAGCTAAGCTGGAAACAGCATAGCAAGTTTAAATAAGGCTAGTCCGTTATCAACTTGAGAAAGTGACACCGAGTCGGTGTT
Mean relative activity: 1.018
--
molecule: cr172 (nucleic acid, listed as DNA, chemistry not fully specified) guide: GTTTAAGAGCTAAGCTGGAAACAGCATAGCAAGTTTAAATAAGGCTTGTCCGTTATCAACTTGTAAAAGTGGCACCGAGTCGGTGCT
Mean relative activity: 0.9996
--
molecule: cr655 (nucleic acid, listed as DNA, chemistry not fully specified) guide: GTTTAAGAGCTAAGCTGGAAACAGCATAGCAAGTTTAAATAAGGCTAGTCCGTCATCAACTTGAAAAAGTGGCACCGAGTCGGTGCT
Mean relative activity: 1.016

Next:
Ask: Report Mean relative activity for cr321 (nucleic acid, listed as DNA, chemistry not fully specified) guide: GTTTAAGAGCTAAGCTGGAAACAGCATAGCCAGTTTAAATAAGGCTAGTCCGTTATCAACTTGAAAAAGTGGCACCGAGTCGGTGCT please.
Reply: 0.9906
